Ref: ChEMBL document CHEMBL5154794

Documented EC50 across a set of compounds
test system: Human immunodeficiency virus 1; assay: Antiviral activity against DRV resistant HIV1; assay type: functional, organism-based

Answered examples (4):
Reported EC50, compound "COc1ccc(S(=O)(=O)N(CC(C)C)C[C@@H](O)[C@H](Cc2ccccc2)NC(=O)[C@@H]2COCCN2)cc1" : ____
3190 nM

Given "COc1ccc(S(=O)(=O)N(CC(C)C)C[C@@H](O)[C@H](Cc2ccccc2)NC(=O)[C@@H]2COCCN2C)cc1" , state its recorded EC50.
1990 nM

Name the recorded EC50 for "CC(C)CN(C[C@@H](O)[C@H](Cc1ccccc1)NC(=O)[C@@H]1COCCN1C)S(=O)(=O)c1ccc(O)cc1" .
2200 nM

Entry "CC(C)CN(C[C@@H](O)[C@H](Cc1ccccc1)NC(=O)O[C@H]1CO[C@H]2OCC[C@H]21)S(=O)(=O)c1ccc(N)cc1" : reported EC50 = ?
110 nM

***
Data request, read-out EC50, for "CC(C)CN(C[C@@H](O)[C@H](Cc1ccccc1)NC(=O)[C@@H]1COCCN1)S(=O)(=O)c1ccc(O)cc1"
1290 nM
